Where do the numbers come from? From patent US8530489B2.

As a worked illustration, we turn to Ki data collected for PLK1 (Homo sapiens).

Worked examples, 8 compounds total:
CC(Nc1ncc(C#N)c(-c2c[nH]c3ncc(C(F)(F)F)cc23)n1)c1ccc(N2CCCNCC2)cc1 (stereo not shown) : < 3 nM
C[C@@H](Nc1ncc(C#N)c(-c2c[nH]c3ncc(C(F)(F)F)cc23)n1)c1ccc(C(N)=O)cc1 : < 3 nM
C[C@@H](Nc1ncc(C#N)c(-c2c[nH]c3ncc(C(F)(F)F)cc23)n1)c1ccc2ccccc2c1 : 3 to 40 nM
CC(Nc1ncc(C#N)c(-c2c[nH]c3ncc(C(F)(F)F)cc23)n1)c1ccc(N2CCC(O)(C(C)C)CC2)nc1 (stereo not shown) : 3 to 40 nM
CCC(Nc1ncc(C#N)c(-c2c[nH]c3ncc(C(F)(F)F)cc23)n1)c1ccccc1 (stereo not shown) : 3 to 40 nM
C[C@@H](Nc1ncc(C#N)c(-c2c[nH]c3ncc(C(F)(F)F)cc23)n1)C1CCN(C(=O)[C@H]2C[C@@H](N)C2)CC1 : < 3 nM
CC(C)N1CCN(c2ccc([C@@H](C)Nc3ncc(C#N)c(-c4c[nH]c5ncc(C(F)(F)F)cc45)n3)cn2)CC1 : < 3 nM
CCCC(CCO)Sc1ncc(C#N)c(-c2c[nH]c3ncc(C(F)(F)F)cc23)n1 (stereo not shown) : > 40 nM

Give Ki for each listed item.
1. COC[C@@H](Nc1ncc(C#N)c(-c2c[nH]c3ncc(C(F)(F)F)cc23)n1)c1ccccc1
2. CCN1CCC(CNc2ncc(C#N)c(-c3c[nH]c4ncc(C(F)(F)F)cc34)n2)CC1
3. N#Cc1cnc(NCc2nc3ccccc3[nH]2)nc1-c1c[nH]c2ncc(C(F)(F)F)cc12
4. N#Cc1cnc(NCc2ccc(F)cc2)nc1-c1c[nH]c2ncc(C(F)(F)F)cc12
5. CNCCNc1ccc(C(C)Nc2ncc(C#N)c(-c3c[nH]c4ncc(C(F)(F)F)cc34)n2)cn1 (stereo not shown)

1: > 40 nM; 2: > 40 nM; 3: > 40 nM; 4: > 40 nM; 5: < 3 nM
